Entry source: ChEMBL document CHEMBL1201862

test system: SK-MEL-2; assay: NCI tumour cell line growth inhibition, 48 h
The source made the active and inactive calls. Rule as the data show it: active = GI50 up to about 1.1 µM and inactive = higher.
assay_endpoint: GI50

Entry Cn1c(-c2cccc(N)c2)[n+](C)c2ccccc21 , tested on SK-MEL-2, has a reported GI50 of > 100 µM (inactive)

Entry C=C(C)C1CC[C@]2(C(=O)O)CCC3(C)[C@H](CCC4[C@@]5(C)CC[C@H](OC6OC(CO)C(O)C6OC6OC(C)C(O)C(O)C6O)[C@@](C)(CO)C5CC[C@]43C)C12 (stereo not given in full) , tested on SK-MEL-2, has a reported GI50 of > 100 µM (inactive)

Entry O=C(NC(=S)Nc1ccc2c(c1)Sc1ccccc1O2)c1ccc([N+](=O)[O-])cc1 , tested on SK-MEL-2, has a reported GI50 of > 100 µM (inactive)

Entry C=C1C[C@]23CCC4C(C)(C)C(=O)CC[C@]4(C)C2C[C@H]1C(O)C3=O (stereo not given in full) , tested on SK-MEL-2, has a reported GI50 of > 75 µM (inactive)

Entry O=C1C=C(Cl)C(=O)C(c2ccc(Cl)cc2)=C1 , tested on SK-MEL-2, has a reported GI50 of 18.6 µM (inactive)

Entry CC#Cc1c(C#CC)c(OC)c2c(c1OC)C(=O)c1ccccc1C2=O , tested on SK-MEL-2, has a reported GI50 of 38.5 µM (inactive)

Entry CCOC(=O)C(=O)Nc1ccccc1CC , tested on SK-MEL-2, has a reported GI50 of > 100 µM (inactive)

Entry CCc1cccc(C)c1NC(=O)CC1Sc2ccccc2NC1=O (stereo not given) , tested on SK-MEL-2, has a reported GI50 of 33.6 µM (inactive)

Entry O=C(O)CSc1nnc(-c2ccccc2)[nH]1 , tested on SK-MEL-2, has a reported GI50 of > 100 µM (inactive)

Entry NC(C(=O)O)C(O)c1c[nH]cn1 (stereo not given) , tested on SK-MEL-2, has a reported GI50 of > 100 µM (inactive)
